Biological target: T1, HLA-A*02:01 (human)
T1 construct: monomers captured on streptavidin plates; also called MHC class I
Experiment: UV peptide exchange ELISA
Text: Candidate peptides for T cell based therapies according to the present invention were further tested for their MHC binding capacity (affinity). The individual peptide-MHC complexes were produced by UV-ligand exchange, where a UV-sensitive peptide is cleaved upon UV-irradiation, and exchanged with the peptide of interest as analyzed. Only peptide candidates that can effectively bind and stabilize the peptide-receptive MHC molecules prevent dissociation of the MHC complexes. […]
endpoint: peptide exchange yield

| binder | result |
| --- | --- |
| GLLDLPFRVGV | ≥ 75% |
| QLALKVEGV | 50 to 75% |
| LLFGGTKTV | 20 to 50% |
| SLVESHLSDQLTL | 50 to 75% |
